# System: HT-29
# ASSAY_NAME: NCI tumour cell line growth inhibition, 48 h
The source made the active and inactive calls. Cut-off read from the data, not from the text of the source: active = GI50 up to about 1.1 µM and inactive = higher.
ASSAY_READOUT: GI50

compound=CN(C)CCN(C)c1ccc2c(=O)n(CCN(C)C)c(=O)n3c4ccccc4c(=O)c1c23 reported="0.397 µM (active)"
compound="C[C@H]1CCC2C(CN3CCCCC3)C(=O)OC2[C@]2(C)C(=O)CC(N3CCCCC3)C12O (stereo not given in full)" reported="3.9 µM (inactive)"
compound=CCN1C(c2ccccc2)=CC(c2ccccc2)(C(Cl)(Cl)Cl)C=C1c1ccccc1 reported="3.48 µM (inactive)"
compound=CN(C)c1ccc(/C=C(\NC(=O)c2ccccc2)C(=O)Nc2ccccc2C(=O)NCc2ccccc2)cc1 reported="> 100 µM (inactive)"
compound=CCN(CC)CCc1c2c(nc3ccccc13)C(=O)c1cccnc1C2=O reported="3.31 µM (inactive)"
compound=COc1c(C)c2nc3ccccc3nc2c2c(O)ccnc12 reported="69.7 µM (inactive)"
compound="CC1(c2nc3ccccc3[nH]2)CCC(CO)C(C)(C)O1 (stereo not given)" reported="> 100 µM (inactive)"
compound="CCOC(=O)C1(Cc2ccc3ccccc3c2)CCCCC(=O)N1 (stereo not given)" reported="30.8 µM (inactive)"
compound=Cn1c(=O)c2c(nc(Cc3ccccc3)n2CC(=O)O)n(C)c1=O reported="> 100 µM (inactive)"
compound=O=C(/C=C/c1ccccc1)c1ccc(Cl)cc1Cl reported="16.8 µM (inactive)"

Origin of measurements: ChEMBL document CHEMBL1201862
